Below, each entry is listed alongside its reported pIC50.
Biological target: aryl hydrocarbon receptor (AhR) (Homo sapiens)
Construct: DRE-Luc HepG2 cells subcultured in a 225 cm^2 flask; endogenous in cells
Sequence (P35869 11-848): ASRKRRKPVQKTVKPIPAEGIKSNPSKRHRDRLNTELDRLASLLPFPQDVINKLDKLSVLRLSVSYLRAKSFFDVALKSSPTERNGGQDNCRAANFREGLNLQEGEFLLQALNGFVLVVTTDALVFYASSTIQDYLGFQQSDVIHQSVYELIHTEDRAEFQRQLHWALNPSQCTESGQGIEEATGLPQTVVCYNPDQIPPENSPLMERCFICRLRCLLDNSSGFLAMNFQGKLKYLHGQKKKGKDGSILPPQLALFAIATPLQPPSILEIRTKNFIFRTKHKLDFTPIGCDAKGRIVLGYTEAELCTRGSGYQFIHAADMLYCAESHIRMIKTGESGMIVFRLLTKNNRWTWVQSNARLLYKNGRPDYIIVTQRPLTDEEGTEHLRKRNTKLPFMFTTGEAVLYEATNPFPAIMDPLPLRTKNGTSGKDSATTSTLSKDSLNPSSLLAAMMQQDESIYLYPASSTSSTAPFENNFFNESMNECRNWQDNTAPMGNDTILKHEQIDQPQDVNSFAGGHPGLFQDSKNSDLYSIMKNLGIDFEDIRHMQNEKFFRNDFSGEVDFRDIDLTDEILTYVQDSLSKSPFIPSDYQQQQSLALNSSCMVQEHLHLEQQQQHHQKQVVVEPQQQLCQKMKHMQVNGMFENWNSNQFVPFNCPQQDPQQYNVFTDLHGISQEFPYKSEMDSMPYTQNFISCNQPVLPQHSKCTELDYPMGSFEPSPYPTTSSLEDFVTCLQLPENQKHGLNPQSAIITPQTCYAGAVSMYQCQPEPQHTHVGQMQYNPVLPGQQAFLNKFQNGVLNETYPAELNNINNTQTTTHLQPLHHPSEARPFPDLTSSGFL
Test: AhR reporter gene assay (aryl hydrocarbon receptor antagonist activity, DRE-Luc HepG2 cells, TCDD-stimulated luciferase)
FYI, pIC50 means -log10 of a concentration in mol per litre.

Completed entries (count: 4):
                                   molecule  numericresult
0  CC1(C)COc2nc3c(NCCc4ccc(O)c(-c5cccc(C#N)c5F)c4)nc(-c4cncc(C#N)c4)nc3n21           8.62
1  CC1(C)CSc2nc3c(NCCc4ccc(O)c(-c5ccccc5)c4)nc(-c4cncc(C#N)c4)nc3n21           9.38
2  CC1(C)CSc2nc3c(NCCc4ccc(O)c(-c5cccc(F)c5)c4)nc(-c4ccc5nccn5c4)nc3n21           8.92
3  C[C@@H]1C[S+]([O-])c2nc3c(NCCc4c[nH]c5ccccc45)nc(-c4cncc(F)c4)nc3n21 (some centres unmarked)           8.39

Query: Identify measured pIC50 corresponding to CC1(C)CSc2nc3c(NCCc4ccc(O)c(-c5cncc(F)c5)c4)nc(-c4cncc(F)c4)nc3n21
Response: 8.34

Query: Identify measured pIC50 corresponding to CC1(C)CSc2nc3c(NCCc4ccc(O)c(-c5ccccc5F)c4)nc(-c4ccc5nccn5c4)nc3n21
Response: 8.74

Query: Identify measured pIC50 corresponding to CC1(C)C[S+]([O-])c2nc3c(NCCc4ccc(O)c(-c5ccccc5F)c4)nc(-c4cncc(F)c4)nc3n21 (centres unmarked)
Response: 10.24

Query: Identify measured pIC50 corresponding to Oc1ccc(CCNc2nc(-c3cncc(F)c3)nc3c2nc2n3CCCO2)cc1-c1ccccc1F
Response: 8.37
